protocol.text: Antioxidant activity assessed as ABTS radical scavenging activity at 1 uM after 30 mins (reference value: 100%)
Type: functional
Parameter Activity: see the listing below.

[[record]]
smiles_record = "Cc1ccc([Se]c2ncnc3[nH]cnc23)cc1"
value_measured = "100%"


Answer with the recorded Activity for the molecule listed here: `Fc1ccc([Se]c2ncnc3[nH]cnc23)cc1`
99.7%

Answer with the recorded Activity for the molecule listed here: `FC(F)(F)c1cccc([Se]c2ncnc3[nH]cnc23)c1`
99.4%

----------
measured.on: Acetylcholinesterase (Mus musculus) (UniProt P21836)
Sequence (whole entry): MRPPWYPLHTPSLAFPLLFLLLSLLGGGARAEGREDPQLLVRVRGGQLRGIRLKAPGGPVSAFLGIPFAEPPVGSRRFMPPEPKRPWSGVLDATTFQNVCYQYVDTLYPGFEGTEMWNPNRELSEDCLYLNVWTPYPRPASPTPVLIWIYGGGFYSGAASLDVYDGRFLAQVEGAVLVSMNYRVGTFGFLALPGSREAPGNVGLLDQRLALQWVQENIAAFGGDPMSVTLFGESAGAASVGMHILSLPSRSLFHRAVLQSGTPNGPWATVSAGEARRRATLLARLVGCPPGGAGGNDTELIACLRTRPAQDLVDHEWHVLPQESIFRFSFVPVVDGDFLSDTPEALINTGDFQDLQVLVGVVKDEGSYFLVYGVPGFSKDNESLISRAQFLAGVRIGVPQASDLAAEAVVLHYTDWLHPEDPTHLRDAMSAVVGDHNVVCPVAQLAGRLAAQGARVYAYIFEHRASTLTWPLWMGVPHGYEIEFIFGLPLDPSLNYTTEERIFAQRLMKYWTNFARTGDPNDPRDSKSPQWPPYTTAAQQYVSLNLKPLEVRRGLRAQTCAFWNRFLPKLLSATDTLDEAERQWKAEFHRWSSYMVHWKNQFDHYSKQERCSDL
protocol.text: Inhibition of AChE in Swiss mouse cerebral cortex homogenate using acetylthiocholine as substrate assessed as acetylthiocholine level per mg protein at 10 uM preincubated for 2 mins followed by substrate addition by DTNB based assay (reference value: 9.6 +/- 0.5 umol/hr)
Parameter Activity: see the listing below.
Numbers only; they are read as µmol/h.

Answer with the recorded Activity for the molecule listed here: `Fc1ccc([Se]c2ncnc3[nH]cnc23)cc1`
6.5

Answer with the recorded Activity for the molecule listed here: `Clc1ccc([Se]c2ncnc3[nH]cnc23)cc1`
7.3

Answer with the recorded Activity for the molecule listed here: `COc1ccc([Se]c2ncnc3[nH]cnc23)cc1`
11.3

----------
measured.on: Acetylcholinesterase (Mus musculus)
protocol.text: Inhibition of AChE in Swiss mouse cerebral cortex homogenate using acetylthiocholine as substrate assessed as acetylthiocholine level per mg protein at 100 uM preincubated for 2 mins followed by substrate addition by DTNB based assay (reference value: 9.6 +/- 0.5 umol/hr) (reference value: 9.6 +/- 0.5 umol/hr)
property.name: Activity (µmol/h)
Numbers only; they are read as µmol/h.

Here is how some compounds turned out for Activity.
[[record]]
smiles_record = "Cc1ccccc1[Se]c1ncnc2[nH]cnc12"
value_measured = 7.1

[[record]]
smiles_record = "Fc1ccc([Se]c2ncnc3[nH]cnc23)cc1"
value_measured = 6.6

[[record]]
smiles_record = "Cc1ccc([Se]c2ncnc3[nH]cnc23)cc1"
value_measured = 8.9


Answer with the recorded Activity for the compound listed here: `COc1ccc([Se]c2ncnc3[nH]cnc23)cc1`
11

Answer with the recorded Activity for the compound listed here: `FC(F)(F)c1cccc([Se]c2ncnc3[nH]cnc23)c1`
8.2

Answer with the recorded Activity for the compound listed here: `c1ccc([Se]c2ncnc3[nH]cnc23)cc1`
7.7

Answer with the recorded Activity for the compound listed here: `Clc1ccc([Se]c2ncnc3[nH]cnc23)cc1`
7.8
